species: Homo sapiens; test: Selectivity index, ratio of Ki for PDEX (unknown origin) to KI for PDE10A (unknown origin)
OBSERVED PROPERTY: Ratio Ki

Examples from the recorded data:
COc1ccc(-n2c(CCN3C(=O)c4cccc(OC(C)C)c4C3=O)nc3ncccc3c2=O)cc1: > 27000
COc1ccc(-n2c(CCN3C(=O)c4cccc(-c5ccncc5)c4C3=O)nc3ccccc3c2=O)cc1: > 29000
Cc1ccc2c(=O)n(-c3ccc4c(cnn4C)c3)c(CCN3C(=O)c4ccccc4C3=O)nc2c1: > 100000

Read the next record carefully.
Using the record for `COc1ccc(-n2c(CCN3C(=O)c4cccc(OC(C)C)c4C3=O)nc3ccccc3c2=O)cc1` , report its Ratio Ki.
> 60000

###

assay: Lipophilicity, log D of the compound at pH 7 by HPLC method; settings: buffer
OBSERVED PROPERTY: logD

Cc1ccc2c(=O)n(-c3ccc4c(cnn4C)c3)c(CCN3C(=O)c4ccccc4C3=O)nc2c1: 3.4
COc1ccc(-n2c(CCN3C(=O)c4cccc(-c5ccncc5)c4C3=O)nc3ccccc3c2=O)cc1: 2.8
COc1ccc(-n2c(CCN3C(=O)c4cccc(OC(C)C)c4C3=O)nc3ncccc3c2=O)cc1: 2.8
COc1ccc(-n2c(CCN3C(=O)c4cccc(OC(C)C)c4C3=O)nc3ccccc3c2=O)cc1: 3.6

###

assay: Permeability of the compound by cell based assay; type: physicochemical; conditions: not told; read-out: permeability
OBSERVED PROPERTY: Papp (×10⁻⁶ cm/s)

Examples from the recorded data:
COc1ccc(-n2c(CCN3C(=O)c4cccc(OC(C)C)c4C3=O)nc3ccccc3c2=O)cc1: 28
COc1ccc(-n2c(CCN3C(=O)c4cccc(-c5ccncc5)c4C3=O)nc3ccccc3c2=O)cc1: 31

P: Cc1ccc2c(=O)n(-c3ccc4c(cnn4C)c3)c(CCN3C(=O)c4ccccc4C3=O)nc2c1
Q: COc1ccc(-n2c(CCN3C(=O)c4cccc(OC(C)C)c4C3=O)nc3ncccc3c2=O)cc1
Would you let me know which has the greater Papp value, P or Q ? API: response body contains the label of the selected item.
Q

###

pKi: −log10 of the molar value.
Measured pKi (cAMP and cAMP-inhibited cGMP 3',5'-cyclic phosphodiesterase 10A (Homo sapiens))
OBSERVED PROPERTY: pKi

Examples from the recorded data:
O=C1c2ccccc2C(=O)N1CCc1nc2ccccc2c(=O)n1-c1ccc2[nH]ccc2c1: 7.89
COc1ccc(-n2c(CCN(C(C)=O)C(C)=O)nc3ccccc3c2=O)cc1: 7.21
COc1ccc(-n2c(CCN3C(=O)c4cccc(C)c4C3=O)nc3ccccc3c2=O)cc1: 8.21
COc1ccc(-n2c(CCN3C(=O)c4cccc(-c5ccncc5)c4C3=O)nc3ccccc3c2=O)cc1: 10.14
Cc1ccc2c(=O)n(-c3ccc4c(cnn4C)c3)c(CCN3C(=O)c4ccccc4C3=O)nc2c1: 10.60

I: COc1ccc(-n2c(CCN(C(C)=O)C(C)=O)nc3cc(OC)ccc3c2=O)cc1
II: COc1ccc(-n2c(CCN3C(=O)c4cccc(O)c4C3=O)nc3ccccc3c2=O)cc1
Among I and II , whose measured pKi is the smaller figure? API: response body contains the label of the selected item.
I
(I: 7.41, II: 7.70)

P: CC(=O)N(CCc1nc2ccccc2c(=O)n1-c1ccccc1C)C(C)=O
Q: COc1ccc(-n2c(CCN(C(C)=O)C(C)=O)nc3ccccc3c2=O)cc1OC
R: CCOc1cccc2c1C(=O)N(CCc1nc3ccccc3c(=O)n1-c1ccc(OC)cc1)C2=O
S: COc1ccc(-n2c(CCN3C(=O)c4cccc(Cl)c4C3=O)nc3ccccc3c2=O)cc1
Put these in order: smallest pKi first, largest last. // rank by listing labels in the order requested
P, Q, S, R

These entries and their values trace back to ChEMBL document CHEMBL3627720.
